Target: M3 (h) (Homo sapiens, UniProt P20309)
Construct: expressed in transfected cells; host or cells: CHO cells
Sequence (P20309 whole entry): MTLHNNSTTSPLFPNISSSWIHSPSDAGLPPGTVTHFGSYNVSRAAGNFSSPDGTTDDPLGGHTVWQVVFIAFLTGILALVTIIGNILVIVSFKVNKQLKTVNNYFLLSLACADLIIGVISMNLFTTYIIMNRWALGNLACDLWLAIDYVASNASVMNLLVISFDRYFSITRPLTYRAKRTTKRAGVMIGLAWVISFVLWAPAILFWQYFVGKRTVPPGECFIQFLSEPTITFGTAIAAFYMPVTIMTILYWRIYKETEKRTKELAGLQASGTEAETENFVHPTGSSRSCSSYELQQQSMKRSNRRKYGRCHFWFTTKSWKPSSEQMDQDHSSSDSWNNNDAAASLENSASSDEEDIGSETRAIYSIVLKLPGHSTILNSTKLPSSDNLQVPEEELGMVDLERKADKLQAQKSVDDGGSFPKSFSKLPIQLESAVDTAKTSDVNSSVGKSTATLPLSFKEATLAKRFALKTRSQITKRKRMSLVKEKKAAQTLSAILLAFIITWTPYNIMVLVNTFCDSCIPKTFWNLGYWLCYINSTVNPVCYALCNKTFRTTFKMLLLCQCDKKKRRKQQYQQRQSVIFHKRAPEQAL
Test: Radioligand binding M3 (h) (antagonist radioligand), [^3H]4-DAMP, CHO cells
Experimental: Methods—Binding Assays: In vitro binding assays were performed using human recombinant receptors expressed in mammalian cell lines. […] All assays were conducted in triplicate, and specific binding was quantified by scintillation counting as the detection method for each listed assay. Specific binding was expressed as a percentage of control-specific binding, and percent inhibition was calculated using the formula in Ex. 8 above. […]
measured-property: Mean Percent Inhibition of Control Specific Binding (%)
Value expressed in %; do not type the unit.

Past entries and their recorded results:
1) COCc1cc(CCN)c(OC)cc1CC(C)C [Compound 2CiBu-5MM]    31.8
2) COCCc1cc(CCN)c(OC)cc1Br [Compound 2CB-5ME, reference compound]    47.9
3) COCc1cc(CCN)c(O)cc1CC(C)C [2CiBu-2OH-5MM]    10.6

Assign Mean Percent Inhibition of Control Specific Binding to the following record: COCc1cc(CCN)c(OC)cc1Br [Compound 2CB-5MM]
29.2
